system.name: Amine oxidase [flavin-containing] A (Homo sapiens)
Sequence (P21397 whole entry): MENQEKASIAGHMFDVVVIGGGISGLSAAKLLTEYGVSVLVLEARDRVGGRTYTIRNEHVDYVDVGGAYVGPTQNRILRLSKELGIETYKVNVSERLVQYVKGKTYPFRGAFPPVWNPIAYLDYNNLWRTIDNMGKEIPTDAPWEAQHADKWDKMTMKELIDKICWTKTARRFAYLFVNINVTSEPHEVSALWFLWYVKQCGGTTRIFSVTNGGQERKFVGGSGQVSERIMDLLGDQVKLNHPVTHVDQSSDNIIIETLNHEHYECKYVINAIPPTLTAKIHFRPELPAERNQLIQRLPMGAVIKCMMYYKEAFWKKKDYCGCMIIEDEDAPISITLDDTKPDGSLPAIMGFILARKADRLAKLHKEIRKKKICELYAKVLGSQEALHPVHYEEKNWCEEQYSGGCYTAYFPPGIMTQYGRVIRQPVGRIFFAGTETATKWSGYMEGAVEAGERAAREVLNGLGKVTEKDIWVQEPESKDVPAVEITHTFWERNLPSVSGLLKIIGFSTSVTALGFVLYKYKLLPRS
experiment.notes: Inhibition of human recombinant MAO-A using p-tyramine as substrate assessed as H2O2 production at 100 uM after 15 mins by fluorescence assay
test.parameters: 0.25 h

- input.smiles: "Cc1c(C)c2ccc(/N=C/c3ccccc3O)cc2[nH]c1=O"
  inhibition at 100 µM, %: 17.7
- input.smiles: "O=c1oc2cc(/N=C/c3ccc(O)cc3O)ccc2c2c1CCC2"
  inhibition at 100 µM, %: 67.6
- input.smiles: "O=c1oc2cc(/N=C/c3ccccc3O)ccc2c2c1CCCC2"
  inhibition at 100 µM, %: 17.2
